- SUBJECT OF TEST: T1, recombinant extracellular domain (ECD) of human TF, amino acid 1-219 of the mature chain, C-terminal His6-tag (human, UniProt P13726 33-251)
- T1 construct: expressed in a mammalian system; used for ELISA and Biacore; biotinylated by NHS-ester for the Fab ELISA; also called His6-TF-ECD1-219; HumanTF1-219
- TEST DESCRIPTION: direct ELISA, 50 ng/ml

BINDER	binding result
M66 (antibody, V domains shown, complete MAb; FR4 is its own entry; also called H23/L3) VH: QVQLVQSGAEVKKPGSSVKVSCKASGYTFITYWIEWVRQAPGQGLEWMGDILPGSGSTNYAQKFQGRVTITADESTSTAYMELSSLRSEDTAVYYCARSGYYGNSGFAYWGQGTLVTVSS VL: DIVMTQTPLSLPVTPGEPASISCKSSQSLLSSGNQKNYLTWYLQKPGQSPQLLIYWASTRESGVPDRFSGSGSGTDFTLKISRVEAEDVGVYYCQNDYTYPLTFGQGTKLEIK	binds
M35 (antibody, V domains shown, complete MAb; FR4 is its own entry; also called H18/L7) VH: EVQLVESGGGLVQPGGSLRLSCAASGYTFITYWIEWVRQAPGKGLVWVSDILPGSGSTNYNENFKGRFTISRDNAKNTLYLQMNSLRAEDTAVYYCARSGYYGNSGFAYWGQGTLVTVSS VL: DIVMTQTPLSSPVTLGQPASISCKSSQSLLSSGNQKNYLTWLQQRPGQPPRLLIYWASTRESGVPDRFSGSGAGTDFTLKISRVEAEDVGVYYCQNDYTYPLTFGQGTKLEIK	binds
M65 (antibody, V domains shown, complete MAb; FR4 is its own entry; also called H23/L2) VH: QVQLVQSGAEVKKPGSSVKVSCKASGYTFITYWIEWVRQAPGQGLEWMGDILPGSGSTNYAQKFQGRVTITADESTSTAYMELSSLRSEDTAVYYCARSGYYGNSGFAYWGQGTLVTVSS VL: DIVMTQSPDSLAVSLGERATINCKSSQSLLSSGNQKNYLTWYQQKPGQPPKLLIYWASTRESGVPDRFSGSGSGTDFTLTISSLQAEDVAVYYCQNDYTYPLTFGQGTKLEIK	binds
